Test system: NCI-H23 lung
test details: NCI-60 one-dose screen, 48 h
assay conditions: 10 µM unless noted
Compounds without any hit were thinned out: in the full panel of roughly 83,000, 20% have a hit. Calls of active or inactive are those of the source. Rule for the calls: active = growth percent below 10; inactive = the rest.
Possible outcomes: active, inactive

molecule	classification
CC(C)(O)c1cncc(-c2ccc3ncc(C#N)c(N4CCc5cc(F)c(Cl)cc54)c3c2)c1	inactive
O=c1c2cc(-c3ccc(F)cc3F)ccc2n(O)c(=O)n1-c1cccc(C(F)(F)F)c1	active
CCN(CC)CCOc1ccc(C(=C(C)Cc2ccc(OC)cc2)c2ccc(OCCN(CC)CC)cc2)cc1	inactive
CCOc1cccc(/C(N)=N/C(N)=N/c2nc3ccccc3s2)c1	inactive
CN1CCN(Cc2ccc(NC(=O)c3cncc(C#Cc4cnc5ccc(NCCO)nn45)c3)cc2C(F)(F)F)CC1	active
O=C(CSc1nnc(-c2ccc(Cl)cc2)n1-c1ccccc1)Nc1cccc(F)c1	inactive
C/C(=C(\c1ccc(O)cc1)c1ccc(OCCN2CCCCCC2)cc1)c1ccc(Cl)cc1	active
CCCC[n+]1ccc(SCC(=O)n2ccc3ccccc32)c2ccccc21	inactive
CC(Nc1c(C#N)cnc2ccc(-c3cncc(O)c3)cc12)c1ccccc1 (centres undefined)	active
NS(=O)(=O)c1ccc(Nc2nc(N/N=C/c3ccc4c(c3)OCO4)nc(Nc3ccccc3)n2)cc1	inactive
Cn1cc(-c2nc(N)nnc2-c2c[nH]c3ccc(Br)cc23)c2cc(F)ccc21	inactive
CCOC(=O)c1c(NC(=O)c2ccc(C(F)(F)F)cc2)sc2c3c(ccc12)OCN(C)C3	inactive
NCCNC(=O)c1cccc(COc2ccccc2NC(=O)c2cc(Br)c(Br)[nH]2)c1	inactive
CN(C)S(=O)(=O)c1ccc(-c2nc(C(Cl)Cl)nc3cc(-c4ccc(F)cc4)nn23)cc1	active
CCN(CC)c1ccc(/C=N/NC(=O)c2ccc(NS(C)(=O)=O)cc2)c(O)c1	inactive
CN1CCN(c2ccc(Nc3nc(NCCNS(=O)(=O)c4ccc5ccccc5c4)c4sccc4n3)cc2)CC1	inactive
NS(=O)(=O)c1cccc(Nc2nc(SCC(=O)c3ccc(Cl)cc3)nc3c2CCC3)c1	inactive
N#Cc1nc(-c2ccc(Cl)cc2)oc1N1CCC(S(=O)(=O)N2CCOCC2)CC1	inactive
CN(C)S(=O)(=O)c1ccc(-c2nc(C(Cl)Cl)nc3cc(-c4ccccc4)nn23)cc1	inactive
